Hi there, I'd appreciate the recorded MIC for every entry that follows.
Tested on: Escherichia coli
Test: Antimicrobial activity against Escherichia coli S1 expressing penicillinase TEM-1
Type: functional
Numbers only, in µg/mL.

Previously resolved entries follow.
* CC1(C)S[C@@H]2[C@H](NC(=O)[C@H](N)c3ccc(O)cc3)C(=O)N2[C@H]1C(=O)O | 8
* O=C(O)c1cn(C2CC2)c2cc(N3CCNCC3)c(F)cc2c1=O | 0.007

# batch: return MIC for each of the 2 compounds below
1. CO/N=C(\C(=O)N[C@@H]1C(=O)N2C(C(=O)O)=C(COC(N)=O)CS[C@H]12)c1ccco1
2. CO/N=C(\C(=O)N[C@@H]1C(=O)N2C(C(=O)OCOC(=O)C(C)(C)C)=C(/C=C\c3scnc3C)CS[C@H]12)c1csc(N)n1

(A)
[4, 0.25]
